src = paper PMC4446446

- Subject Of Test: the molecule itself
- Experimental Details: native gel or EMSA

- Protein: "SDR5C1 K172A, N-terminally His-tagged (enzyme) MAAACRSVKGLVAVITGGASGLGLATAERLVGQGASAVLLDLPNSGGEAQAKKLGNNCVFAPADVTSEKDVQTALALAKGKFGRVDVAVNCAGIAVASKTYNLKKGQTHTLEDFQRVLDVNLMGTFNVIRLVAGEMGQNEPDQGGQRGVIINTASVAAFEGQVGQAAYSASAGGIVGMTLPIARDLAPIGIRVMTIAPGLFGTPLLTSLPEKVCNFLASQVPFPSRLGDPAEYAHLVQAIIENPFLNGEVIRLDGAIRMQP"
  Tetramerized SDR5C1 (percent) [%]: 100
